Test system: OVCAR-3 (Ovarian Carcinoma);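 further: after 72 h of two-drug dosing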
Assay: Bliss excess, mean over the matrix (fraction); higher = more synergy
Reported Bliss excess values for the following compounds.
EXPERIMENTAL_ENDPOINT: Bliss excess

[[record]]
compound = "Cc1c2c(nn1C)CSCc1cc(n(C)n1)CSc1cc(c3ccccc3c1)OCCCc1c(C(=O)O)n(C)c3c-2c(Cl)ccc13 [AZD5991] + C=CCn1c(=O)c2cnc(Nc3ccc(N4CCN(C)CC4)cc3)nc2n1-c1cccc(C(C)(C)O)n1 [AZD1775] (first compound max 1 µM, partner max 1 µM)"
observed_measurement = 0.031

[[record]]
compound = "NC1(C(=O)N[C@@H](CCO)c2ccc(Cl)cc2)CCN(c2ncnc3[nH]ccc23)CC1 [Capivasertib] + COc1nnc2ccc(N3CCC(c4ccc(OCCN5CCN(C)C(=O)[C@H]5C)cc4)CC3)nn12 [AZD5153] (first compound max 10 µM, 7x7, partner max 1 µM)"
observed_measurement = 0.0189

[[record]]
compound = "Cc1cc2ncnn2cc1Nc1ncc2c(n1)n(C1CCOCC1)c(=O)n2C [AZD7648] + O=C(c1cc(Cc2n[nH]c(=O)c3ccccc23)ccc1F)N1CCN(C(=O)C2CC2)CC1 [Olaparib] (first compound max 10 µM, 7x7, partner max 10 µM)"
observed_measurement = -0.0257

[[record]]
compound = "CC1(C)CCC(CN2CCN(c3ccc(C(=O)NS(=O)(=O)c4ccc(NCC5CCOCC5)c([N+](=O)[O-])c4)c(Oc4cnc5[nH]ccc5c4)c3)CC2)=C(c2ccc(Cl)cc2)C1 [Venetoclax] + CCN(CCO)CCCOc1ccc2c(Nc3cc(CC(=O)Nc4cccc(F)c4)[nH]n3)ncnc2c1 [AZD2811] (first compound max 1 µM, 7x7, partner max 1 µM)"
observed_measurement = -0.0087

[[record]]
compound = "CC(=O)Nc1cccc(-n2c(=O)n(C3CC3)c(=O)c3c(Nc4ccc(I)cc4F)n(C)c(=O)c(C)c32)c1 [Trametinib] + Cc1nc(-c2cn3c(n2)-c2ccc(-c4cnn(C(C)(C)C(N)=O)c4)cc2OCC3)n(C(C)C)n1 [Taselisib] (first compound max 1 µM, 7x7, partner max 10 µM)"
observed_measurement = 0.037

[[record]]
compound = "C[C@@H](c1ccc2nccn2c1)n1nnc2ncc(-c3cnn(C)c3)nc21 [Savolitinib] + CC1(C)CCC(CN2CCN(c3ccc(C(=O)NS(=O)(=O)c4ccc(NCC5CCOCC5)c([N+](=O)[O-])c4)c(Oc4cnc5[nH]ccc5c4)c3)CC2)=C(c2ccc(Cl)cc2)C1 [Venetoclax] (first compound max 1 µM, 7x7, partner max 1 µM)"
observed_measurement = -0.0399

[[record]]
compound = "COc1cccc(OCCCN)c1-c1cc(Nc2cnc(C#N)cn2)n[nH]1 [Prexasertib] + CCc1c2c(nc3ccc(O)cc13)-c1cc3c(c(=O)n1C2)COC(=O)[C@]3(O)CC [SN-38] (first compound max 1 µM, 7x7, partner max 0.3 µM)"
observed_measurement = 0.141


###

Tested on: NCI-H596 (Other Solid Carcinomas)
Assay: combination Emax (second highest fraction inhibited in the dose matrix, 72 h); higher = more inhibition; extreme values may be limits of the assay
Reported combination Emax values for the following compounds.
EXPERIMENTAL_ENDPOINT: combination Emax

[[record]]
compound = "C[C@@H]1COCCN1c1cc(C2([S@](C)(=N)=O)CC2)nc(-c2ccnc3[nH]ccc23)n1 [AZD6738] + O=C(c1cc(Cc2n[nH]c(=O)c3ccccc23)ccc1F)N1CCN(C(=O)C2CC2)CC1 [Olaparib] (first compound max 10 µM, 7x7, partner max 10 µM)"
experimental_endpoint = "combination Emax"
observed_measurement = 0.5

[[record]]
compound = "COc1nnc2ccc(N3CCC(c4ccc(OCCN5CCN(C)C(=O)[C@H]5C)cc4)CC3)nn12 [AZD5153] + Cn1cnc2c(F)c(Nc3ccc(Br)cc3Cl)c(C(=O)NOCCO)cc21 [Selumetinib] (first compound max 1 µM, 7x7, partner max 10 µM)"
experimental_endpoint = "combination Emax"
observed_measurement = 0.725

[[record]]
compound = "COc1cccc(OCCCN)c1-c1cc(Nc2cnc(C#N)cn2)n[nH]1 [Prexasertib] + CN(C)CCCOc1ccc(-c2ccc3ncc4c(c3c2)n(C2CCOCC2)c(=O)n4C)cn1 [AZD0156] (first compound max 1 µM, 7x7, partner max 1 µM)"
experimental_endpoint = "combination Emax"
observed_measurement = 0.414

[[record]]
compound = "COc1cccc2c1C(=O)c1c(O)c3c(c(O)c1C2=O)C[C@@](O)(C(=O)CO)C[C@@H]3O[C@H]1C[C@H](N)[C@H](O)[C@H](C)O1 [Doxorubicin] + Cc1cc2ncnn2cc1Nc1ncc2c(n1)n(C1CCOCC1)c(=O)n2C [AZD7648] (first compound max 1 µM, 7x7, partner max 10 µM)"
experimental_endpoint = "combination Emax"
observed_measurement = 0.295

[[record]]
compound = "CN(CCO)CC[C@H](CSc1ccccc1)Nc1ccc(S(=O)(=O)NC(=O)c2ccc(N3CCC([C@@H](O)c4ccccc4-c4ccc(Cl)cc4)CC3)cc2)cc1S(=O)(=O)C(F)(F)F [AZD4320] + CN(C)CCCOc1ccc(-c2ccc3ncc4c(c3c2)n(C2CCOCC2)c(=O)n4C)cn1 [AZD0156] (first compound max 1 µM, 7x7, partner max 1 µM)"
experimental_endpoint = "combination Emax"
observed_measurement = 0.289

[[record]]
compound = "COc1cccc(OCCCN)c1-c1cc(Nc2cnc(C#N)cn2)n[nH]1 [Prexasertib] + CCc1c2c(nc3ccc(O)cc13)-c1cc3c(c(=O)n1C2)COC(=O)[C@]3(O)CC [SN-38] (first compound max 1 µM, 7x7, partner max 0.3 µM)"
experimental_endpoint = "combination Emax"
observed_measurement = 0.735

[[record]]
compound = "Cc1cc2ncnn2cc1Nc1ncc2c(n1)n(C1CCOCC1)c(=O)n2C [AZD7648] + CN(C)CCCOc1ccc(-c2ccc3ncc4c(c3c2)n(C2CCOCC2)c(=O)n4C)cn1 [AZD0156] (first compound max 10 µM, 7x7, partner max 1 µM)"
experimental_endpoint = "combination Emax"
observed_measurement = 0.243


FYI, the data here is from the supplement of paper PMC11061612.
